- System: NCI/ADR-RES ovarian
- procedure_details: NCI-60 one-dose screen, 48 h (100 = growth as untreated, 0 = no growth, -100 = all killed)
- experimental_setup: 10 µM unless noted
The panel holds about 83,000 compounds, 20% with a hit somewhere; the sample as a whole holds those more often.
Mark Criterion met for growth under 90%, Criterion not met if at or over.

API: query returns whether the compound falls strictly under 90% in growth. Query: Cc1ccc(C2=Nc3c(N)nc(N)nc3NC(c3cccc(Nc4ccnc5cc(C(F)(F)F)ccc45)c3)C2)cc1 (stereo not drawn)
Criterion met

And `c1ccc2[nH]c(-c3ccc(-c4nccc5c4[nH]c4ccccc45)cc3)nc2c1` ?
Criterion met

Okay, and `O=c1c(/C=C/c2c(O)ccc3ccccc23)nnc2sc(-c3cccc([N+](=O)[O-])c3)nn12` ?
Criterion met

Entry `C=CCn1c(SCC(=O)Nc2ccc(C(=O)/C=C/c3ccc(Cl)cc3)cc2)nnc1-c1ccccc1` please
Criterion not met

Likewise for `[2H]C([2H])([2H])Oc1ccc(/C=C/C(=O)/C=C(O)/C=C/c2ccc(OC([2H])([2H])[2H])c(OC([2H])([2H])[2H])c2)cc1OC([2H])([2H])[2H]` ?
Criterion met

Now the same for COc1cc(C2CC(c3cccc(Nc4ccncc4)c3)=Nc3c(N)ncnc3N2)cc(OC)c1OC (stereo not drawn)
Criterion not met

Field entry: O=C(OCC(O)(CO)C(=O)NC12CC3CC(CC(C3)C1)C2)c1ccc(Cl)cc1 (stereo not drawn)
Criterion not met

Could you do the same for `COc1cc2nc3cc([N+](=O)[O-])ccc3c(NCCCNCCO)c2cc1OC` , please?
Criterion not met

---

- Test system: NCI-H23 lung
- procedure_details: NCI-60 one-dose screen, 48 h (100 = growth as untreated, 0 = no growth, -100 = all killed)
- experimental_setup: 10 µM unless noted
This is part of a sample that, as a whole, favours compounds with a hit. Of some 83,000 tested, about 20% had one in any assay. Calls of active or inactive are those of the source. The calls were made as follows: active = growth percent below 10; inactive = the rest.
measured_endpoint: growth

Name the recorded growth for COc1cccc(C2C(C#N)=C(N)Oc3c2ccc2ccccc32)c1 (stereo unspecified) .
28.4% (inactive)

Now the same for `Cc1cc(C)n(C(=O)CSc2nc3sc4c(c3c(=O)n2-c2ccccc2)CCCCC4)n1`
91.6% (inactive)

Again, but for `CN(C)CCOc1nc2c3cc([N+](=O)[O-])ccc3nn2c2ccccc12`
36.7% (inactive)

// repeat for `COc1ccc(N/N=C/c2ccc3c(c2)Sc2ccccc2N3C)cc1` and report
76.8% (inactive)

Note, next up: CCN1C(=O)N(CC)C2C1NN=c1s/c(=C\c3ccccc3)c(=O)n12 (stereo unspecified)
25.6% (inactive)

Okay, and O=C1OCC2=C1C(c1cccc(F)c1)c1cc3c(cc1N2CCO)CCC3 (stereo unspecified) ?
24.7% (inactive)

Try this compound too: `COc1cc(CNC(=O)CCCC/C=C/C(C)C)ccc1OCc1cn(-c2ccc(C(F)(F)F)cc2)nn1`
94.6% (inactive)

Repeat for the following compound: `COc1ccc(C2=C/C(=C\c3ccccc3O)C(=O)N2Cc2ccccc2)cc1`
85.9% (inactive)

And what about the compound `CCCCCCCCOC(=O)c1c(C)[nH]c(/C=C2\N=C(c3ccc[nH]3)C=C2OC)c1C` ?
3.19% (active)

Next record, please: `COc1cc(C(=O)c2c(-c3ccccc3)oc3ccccc23)cc(OC)c1O`
43.2% (inactive)

Try `CCCCC/C=C/CCC(=O)N[C@H]1[C@H](Oc2c3cc4cc2Oc2ccc(cc2Cl)[C@@H](O[C@@H]2O[C@H](CO)[C@@H](O)[C@H](O)[C@H]2NC(C)=O)[C@@H]2NC(=O)[C@H](NC(=O)[C@@H]4NC(=O)[C@H]4NC(=O)[C@@H](Cc5ccc(c(Cl)c5)O3)NC(=O)[C@@H](N)c3ccc(O)c(c3)Oc3cc(O)cc4c3)c3ccc(O)c(c3)-c3c(O[C@H]4O[C@H](CO)[C@@H](O)[C@H](O)[C@@H]4O)cc(O)cc3[C@H](C(=O)O)NC2=O)O[C@H](CO)[C@H](O)[C@@H]1O` next.
93.4% (inactive)

Same for `COc1ccc(-c2csc(NC(=O)CSc3nc(C)cc(=O)[nH]3)n2)cc1`
91.1% (inactive)

Please give the result for `CCOC(=O)c1c2c(n3ccc(NC(=O)CCN4CCCC4)cc13)C(=O)c1ncccc1C2=O` too.
-72.5% (active)

Same question, `C(CCCSC1=NCCN1)CCSC1=NCCN1` this time
94.8% (inactive)

Try the compound O=C1C2C(c3cccs3)C=C(c3ccc(Cl)cc3)N2C(=S)N1c1ccccc1 (stereo unspecified)
94.2% (inactive)

Lookup CCOC(=O)CC1C(CNC(=O)NC)OC(n2cnc3c(NC(=O)Nc4ccccc4)ncnc32)C1O[Si](C)(C)C(C)(C)C (stereo unspecified)
91.7% (inactive)

Cool, now `Cc1cc2nc(C(Cl)Cl)nc(-c3ccccc3)n2n1`
33.6% (inactive)

`N#Cc1c(-c2ccc(Cl)cc2)nc(NN=Cc2cccc(Cl)c2)nc1N1CCOCC1` , same question.
101% (inactive)

And then `O=c1c(/C=C/c2c(O)ccc3ccccc23)nnc2sc(-c3cccc([N+](=O)[O-])c3)nn12` , what is it?
61.6% (inactive)

Now the same for `COC12C=C/C(=C(/C(=O)OCc3ccccn3)C(=O)CCCCCCCCC3(OC)C=C/C(=C(/C(=O)OCc4ccccn4)C(=O)CCCCCCCC1)O3)O2`
-37.4% (active)

What would you report for `COc1cccc(-c2nn(-c3ccccc3)cc2-c2ccnc(-c3cccnc3)c2)c1` ?
86.5% (inactive)

Next compound: O=C(CN1C(=O)NC2NC(=O)NC21)N/N=C/c1cccc([N+](=O)[O-])c1 (stereo unspecified)
104% (inactive)

Here is the next compound: `O=C(O)c1cc2ccccc2s1`
101% (inactive)

What do you get for `N#C/C(Sc1nc2sc3c(c2c(=O)n1Cc1ccccc1)CCCC3)=C1/SC=C(c2ccc(Cl)cc2)N1c1ccccc1` ?
86.6% (inactive)

Entry `O=C1C(Nc2ccc(Br)cc2)=C(I)C(=O)c2ncccc21` please
10.6% (inactive)

Then this compound: `FC(F)(F)c1cc(N2CCCCC2)nc(NCCCNc2ccnc3cc(Cl)ccc23)n1`
27.2% (inactive)

Param item: `Nc1ncc(-c2ccc3ncnc(N4CCc5cc(F)c(Cl)cc54)c3c2)cc1C(F)(F)F`
47.6% (inactive)

Also `CNc1nc2ncc(-c3c(C)noc3C)cc2n1Cc1ccccc1` , if possible.
55.5% (inactive)

Same again, this time with `C=C(C)[C@@H]1CCC[C@]2(C(=O)OC)CC[C@]3(C)[C@@H](CC[C@@H]4[C@@]5(C)CCCNC(C)(C)[C@@H]5CC[C@]43C)[C@@H]12`
96% (inactive)

Now consider `CS(=O)(=O)Nc1cc(-c2ccc3ncnc(Nc4cccc(Cl)c4)c3c2)cnc1Cl` .
6.5% (active)

Try this compound too: `COC(=O)[C@@H](Cc1c[nH]c2ccccc12)NC(=O)[C@H](Cc1ccccc1)NCc1ccncc1`
97.4% (inactive)

Please give the result for `CCOc1ccc(N2C(=O)CCSC2=S)cc1` too.
102% (inactive)

Try this compound next: `CNC(=O)c1cc(Oc2ccc3nc(NC(=O)c4cc(C(F)(F)F)cc(C(F)(F)F)c4)sc3c2)ccn1`
20.2% (inactive)

Param item: `COc1ccc(-c2nc3cc(C(=O)NC4CCCCC4)ccc3n2C2CCCCC2)cc1`
92.5% (inactive)

Query `O=C(NS(=O)(=O)c1ccccc1)n1cc(-c2ccncc2)c(-c2cc(O)cc(Cl)c2)n1` next
104% (inactive)

Subsequent entry: `CN(C)C(=O)OCc1ccc2c(Cl)cc(Cl)c(O)c2n1`
51.2% (inactive)

---

- Test system: T-47D breast
- procedure_details: NCI-60 one-dose screen, 48 h (100 = growth as untreated, 0 = no growth, -100 = all killed)
- experimental_setup: 10 µM unless noted
This is part of a sample that, as a whole, favours compounds with a hit. Of some 83,000 tested, about 20% had one in any assay.
So basically, if growth comes in under 30% it's criterion met, and if it's 30% or more it's criterion not met.

Consider `CCNc1nc(-c2ccc(Cl)c(OC)c2)c(-c2ccnc(NCCNS(=O)(=O)c3ccc(Cl)cc3)n2)s1` . Does its growth lie strictly below 30%?
criterion not met

Lookup `Nc1ccc(N)c2c1C(=O)c1cccc([N+](=O)[O-])c1C2=O`
criterion not met

# iterate: `Cn1nc(-c2ccc(Cl)cc2)nc2c(=O)n(C)c(=O)nc1-2`
criterion met

Repeat with `COc1ccc(Cn2cc(C(=O)N=Nc3c(O)[nH]c4ccc(Br)cc34)nn2)cc1`
criterion not met

Also `CCCS(=O)(=O)Nc1cccc(Nc2ncnc3cc(NC(=O)CCl)ccc23)c1Cl` ?
criterion met

What about `CCOC(=O)C#Cc1c(CC(=O)OCC)nnn1[C@H]1O[C@@H](CO)[C@@H]2OC(C)(C)O[C@@H]21` ?
criterion not met

Another compound to look at: `O=C(c1ccc(F)cc1)C1CCN(CCn2c(=O)[nH]c3ccccc3c2=O)CC1`
criterion not met

And then `O=[N+]([O-])c1ccc(N/N=C\c2cc(Cl)ccc2O)nc1` , what is it?
criterion met

Consider next the compound `O=C1Nc2ccccc2/C1=C/c1cccn1CCCCCCn1c2ccccc2c(=O)c2ccccc21` in the same way.
criterion met

// same read-out, input: CCN1C(=O)N(CC)C2C1NN=c1s/c(=C\c3ccccc3)c(=O)n12 (stereo not given)
criterion not met
